Would you kindly list half-life for each of these molecules?
Experiment: in vitro
Conditions: human, microsomes, pH 7.4
Answers are plain numbers, in min.

C[C@H](c1cccc2ccccc12)N1CCC(C(=O)NCc2cccc(F)c2)CC1 | 7
COc1cc(CNC(=O)C2CCN(C(C)c3ccc(OC)c4ccccc34)CC2)ccn1 (stereo not drawn) | 39

In: Which half-life value is on record for "COc1cc(CNC(=O)C2CCN([C@H](C)c3cccc4ccccc34)CC2)ccn1" ?
Out: 16

====

Molecular target: UniProtKB P0DTD1
Experiment: biochemical
Details: PLpro IC50
Reported Metric: IC50 (nM)
Numbers only, in nM.

CC(c1cccc2ccccc12)N1CCC(C(=O)NCc2cccc(F)c2)CC1 (stereo not drawn) [rac3k] | 1500

Pending compound:
In: Find the recorded IC50 belonging to COc1cc(CNC(=O)C2CCN(C(C)c3cccc4ccccc34)CC2)ccn1 (stereo not drawn) [rac5c] and report it.
Out: 790
